Data credit: PubChem BioAssay AID1159580

- Assay Remarks: chemical genetic growth profiling, strain panel (AID 1159580);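 also: tested at 20 µM; growth read once vehicle control cultures reached saturation at 30 °C; 1 = growth at the plate median or of vehicle wells; lower values mean less growth of the strain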
- Applied Conditions: S. cerevisiae deletion strains, growth OD, locus YPL078C, strain atp4, stronger effect = lower value
Hit rate of the full screen: of about 5,500 compounds, about 2,000 (36%) were called active. Not shown: some 18% with an inconclusive outcome. The list shows a part of the results.
Readout Label: normalized growth

1) COc1ccc(-c2cc(=O)c3c(OC)c(OC)c(OC)c(OC)c3o2)cc1OC; 0.985 (inactive)
2) CCC(=O)NCC[C@@H]1CCc2ccc3c(c21)CCO3; 1.03 (inactive)
3) O=C(CCCN1CCC2(CC1)C(=O)NCN2c1ccccc1)c1ccc(F)cc1; 0.964 (inactive)
4) NC[C@H]1O[C@H](O[C@H]2[C@H](O)[C@@H](O[C@H]3O[C@H](CO)[C@@H](O)[C@H](N)[C@H]3O)[C@H](N)C[C@@H]2N)[C@H](N)[C@@H](O)[C@@H]1O; 1.02 (inactive)
5) COc1ccc(-c2cc(=O)c3c(O)c(OC)c(O[C@H]4O[C@H](CO[C@@H]5O[C@@H](C)[C@H](O)[C@@H](O)[C@H]5O)[C@@H](O)[C@H](O)[C@H]4O)cc3o2)cc1; 1.03 (inactive)
6) CC(=O)OCC(=O)[C@@]1(O)CCC2C3C[C@H](C)C4=CC(=O)C=CC4(C)C3[C@@H](O)CC21C (some centres not stated); 1.03 (inactive)
7) COC(=O)[C@H]1[C@H]2C[C@H]3c4[nH]c5cc(OC)ccc5c4CCN3C[C@H]2C[C@@H](OC(=O)c2cc(OC)c(OC)c(OC)c2)[C@@H]1OC; 1 (inactive)
